Data provenance is paper PMC6332320.

assay-overview: In vivo oral pharmacokinetic study in SD rats
Design: species or system Sprague-Dawley rats
study-conditions: Sprague-Dawley, rat, po, mixture of MG and PGG 20 mg/kg each, blood
property-label: Tmax

Sample COC(=O)c1cc(O)c(O)c(O)c1 [MG, methyl gallate] — what was its Tmax?
2.3 h

* * *

assay-overview: Caco-2 transepithelial transport experiment
Assay type: in vitro ADME, human
study-conditions: human, Caco-2, pH 6, in mixture of GA, MG, PGG 20 μM, HBSS pH 6; read-out: Papp B to A
property-label: Papp B→A at 240 min, 20 µM
For clarity, give the value followed by its unit.

Sample COC(=O)c1cc(O)c(O)c(O)c1 [MG, methyl gallate] — what was its Papp B→A at 240 min, 20 µM?
6.33 ×10⁻⁶ cm/s
